Assay: Calcein AM viability test on ATRA-differentiated SH-SY5Y cells
Assay type: cell-based, human
Conditions: human, ATRA-differentiated SH-SY5Y neuroblastoma cells, 0.1 μM compound, DMSO control = 100%, read-out: % of viability, relative to control
Measurement Type: viability at 24 h, 0.1 µM (%)
All answers are understood in %, so give the number only.

Answered examples (5):
• c1ccc(Cn2cnc3c(N4CCSCC4)nc(N4CCSCC4)nc32)cc1 = 106
• c1ccc(Cn2cnc3c(N4CCCCC4)nc(N4CCCC4)nc32)cc1 = 106
• c1ccc(Cn2cnc3c(N4CCCC4)nc(N4CCCCC4)nc32)cc1 = 107
• Oc1cccc(Cn2cnc3c(N4CCCC4)nc(N4CCCC4)nc32)c1 = 108
• c1ccc(Cn2cnc3c(N4CCOCC4)nc(N4CCOCC4)nc32)cc1 = 106

Report viability at 24 h, 0.1 µM for Clc1cccc(Cl)c1Cn1cnc2c(N3CCCC3)nc(N3CCCC3)nc21 please.
111

Report viability at 24 h, 0.1 µM for Oc1ccc(Cn2cnc3c(N4CCCC4)nc(N4CCCC4)nc32)cc1 please.
99.5

meta.source: patent US12319694B2
